Target: Aurora kinase B (Homo sapiens, UniProt Q96GD4)
Sequence (Q96GD4 whole entry): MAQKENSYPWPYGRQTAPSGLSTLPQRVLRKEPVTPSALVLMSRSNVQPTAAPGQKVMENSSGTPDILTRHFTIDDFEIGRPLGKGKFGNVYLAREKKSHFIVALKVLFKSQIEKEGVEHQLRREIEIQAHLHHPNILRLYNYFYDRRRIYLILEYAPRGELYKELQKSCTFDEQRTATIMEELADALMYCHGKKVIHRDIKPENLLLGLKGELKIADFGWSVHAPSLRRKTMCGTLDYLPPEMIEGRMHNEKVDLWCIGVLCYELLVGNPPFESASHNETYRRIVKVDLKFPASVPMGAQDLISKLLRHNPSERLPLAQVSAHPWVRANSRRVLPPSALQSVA
Assay: Inhibition of AURKB (unknown origin)
MEASURE: IC50 (nM)

Worked cases, answers included:
COc1ccc2c(c1)[C@@]1(C[C@@H]1c1ccc3c(-c4ccc(N5CCN(C)CC5)nc4)n[nH]c3c1)C(=O)N2; 2100
COc1ccc2c(c1)C(=Cc1ccc3c(-c4ccc(N5CCN(C)CC5)nc4)n[nH]c3c1)C(=O)N2; 35
COc1ccc2c(c1)[C@]1(C[C@H]1c1ccc3c(-c4ccc(N5CCN(C)CC5)cc4)n[nH]c3c1)C(=O)N2; 6.9

(1) COc1ccc2c(c1)[C@]1(C[C@H]1c1ccc3c(-c4ccc(N5CCN(CCO)CC5)cc4)n[nH]c3c1)C(=O)N2
(2) COc1ccc2c(c1)[C@]1(C[C@H]1c1ccc3c(-c4ccc(N5C[C@@H](C)N[C@@H](C)C5)cc4)n[nH]c3c1)C(=O)N2
Exam item: For the pair 1 and 2 , which entry has the numerically smaller recorded IC50? Return value: the label identifying the chosen record.
Marked response: 1
(1: 7 nM, 2: 13 nM)

###

Target: Serine/threonine-protein kinase PLK4 (Homo sapiens, UniProt O00444)
Assay: Inhibition of PLK4 (unknown origin)
pIC50: −log10 of the molar value.
MEASURE: pIC50

COc1ccc2c(c1)[C@@]1(C[C@@H]1c1ccc3c(-c4ccc(N5CCN(C)CC5)nc4)n[nH]c3c1)C(=O)N2; 7.52
COc1ccc2c(c1)[C@]1(C[C@H]1c1ccc3c(-c4ccc(N5C[C@@H](C)N[C@@H](C)C5)cc4)n[nH]c3c1)C(=O)N2; 8.92

(1) CCN1CCN(c2ccc(-c3n[nH]c4cc([C@@H]5C[C@@]56C(=O)Nc5ccc(OC)cc56)ccc34)cc2)CC1
(2) COc1ccc2c(c1)[C@]1(C[C@H]1c1ccc3c(-c4ccc(N5CCNCC5)cc4)n[nH]c3c1)C(=O)N2
Exam item: Hi, I'm comparing two records. Which one has the lower pIC50, 1 or 2 ? Respond with the label that goes with your answer.
Marked response: 1
(1: 8.80, 2: 9.35)

###

Molecular target: Receptor-type tyrosine-protein kinase FLT3 (Homo sapiens, UniProt P36888)
Sequence (P36888 whole entry): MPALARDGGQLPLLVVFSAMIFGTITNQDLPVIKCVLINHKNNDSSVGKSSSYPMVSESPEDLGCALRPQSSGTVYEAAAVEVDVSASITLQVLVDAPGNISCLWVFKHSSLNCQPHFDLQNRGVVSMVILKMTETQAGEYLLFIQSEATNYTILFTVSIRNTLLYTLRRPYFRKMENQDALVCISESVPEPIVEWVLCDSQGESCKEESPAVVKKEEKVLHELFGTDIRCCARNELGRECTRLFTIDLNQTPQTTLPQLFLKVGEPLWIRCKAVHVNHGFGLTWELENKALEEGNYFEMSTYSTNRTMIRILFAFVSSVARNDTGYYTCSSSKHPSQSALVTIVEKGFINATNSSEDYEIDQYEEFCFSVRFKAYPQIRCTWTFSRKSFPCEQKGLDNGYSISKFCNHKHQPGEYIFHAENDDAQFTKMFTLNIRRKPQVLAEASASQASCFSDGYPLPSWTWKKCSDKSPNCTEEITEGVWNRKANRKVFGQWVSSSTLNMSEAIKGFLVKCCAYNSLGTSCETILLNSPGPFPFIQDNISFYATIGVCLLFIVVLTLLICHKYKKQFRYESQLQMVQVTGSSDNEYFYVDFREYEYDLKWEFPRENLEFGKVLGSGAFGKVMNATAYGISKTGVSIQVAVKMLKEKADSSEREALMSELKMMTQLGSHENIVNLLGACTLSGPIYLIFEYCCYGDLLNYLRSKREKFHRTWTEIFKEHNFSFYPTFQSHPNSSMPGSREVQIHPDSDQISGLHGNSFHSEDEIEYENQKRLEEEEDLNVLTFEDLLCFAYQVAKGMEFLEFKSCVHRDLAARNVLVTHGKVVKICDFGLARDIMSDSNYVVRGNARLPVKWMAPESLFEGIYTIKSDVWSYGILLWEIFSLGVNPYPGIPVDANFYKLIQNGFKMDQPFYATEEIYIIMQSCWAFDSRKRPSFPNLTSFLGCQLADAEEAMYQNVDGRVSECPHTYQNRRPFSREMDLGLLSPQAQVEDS
MEASURE: IC50 (nM)

O=C1Nc2ccccc2C1=Cc1ccc2c(-c3cccnc3)n[nH]c2c1; 27

(1) CN1CCN(c2ccc(-c3n[nH]c4cc(C=C5C(=O)Nc6ccccc65)ccc34)cn2)CC1
(2) COc1ccc2c(c1)[C@]1(C[C@H]1c1ccc3c(-c4ccc(N5C[C@@H](C)N[C@@H](C)C5)cc4)n[nH]c3c1)C(=O)N2
Exam item: Compare the recorded IC50 of 1 and 2 ; state which is larger. Could you answer with the label of the item you picked?
Marked response: 2

###

Experiment: Clearance in rat at 1 mg/kg, iv
Assay type: ADME, organism-based
Settings: in vivo
MEASURE: clearance (mL/min/kg)

Recorded clearance, per entry:
CN1CCN(c2ccc(/C=C/c3n[nH]c4cc(/C=C5/C(=O)Nc6ccccc65)ccc34)cn2)CC1; 107
COc1ccc2c(c1)[C@]1(C[C@H]1c1ccc3c(-c4ccc(N5CCN(CCO)CC5)cc4)n[nH]c3c1)C(=O)N2; 76.7

(1) COc1ccc2c(c1)[C@]1(C[C@H]1c1ccc3c(/C=C/c4ccc(N5CCN(C)CC5)nc4)n[nH]c3c1)C(=O)N2
(2) COc1ccc2c(c1)C(=Cc1ccc3c(-c4ccc(N5CCN(C)CC5)nc4)n[nH]c3c1)C(=O)N2
Exam item: Lab note: check whether 1 or 2 shows the higher recorded clearance. # answer = label of selected item
Marked response: 2
(2: 178 mL/min/kg, 1: 51.7 mL/min/kg)

###

Assay: AUC in mouse at 25 mg/kg, po
Assay type: ADME, organism-based
Conditions: in vivo
MEASURE: AUC (ng·h/mL)

COc1ccc2c(c1)[C@]1(C[C@H]1c1ccc3c(-c4ccc(N5CCN(C)CC5)cc4)n[nH]c3c1)C(=O)N2; 1830
COc1ccc2c(c1)[C@]1(C[C@H]1c1ccc3c(-c4ccc(N5CCN(C)CC5)nc4)n[nH]c3c1)C(=O)N2; 140

(I) CCN1CCN(c2ccc(-c3n[nH]c4cc([C@@H]5C[C@@]56C(=O)Nc5ccc(OC)cc56)ccc34)cc2)CC1
(II) COc1ccc2c(c1)[C@]1(C[C@H]1c1ccc3c(-c4ccc(N5C[C@@H](C)N[C@@H](C)C5)cc4)n[nH]c3c1)C(=O)N2
(III) COc1ccc2c(c1)[C@]1(C[C@H]1c1ccc3c(-c4ccc(N5CCN(CCO)CC5)cc4)n[nH]c3c1)C(=O)N2
Exam item: Order the records, beginning with the lowest AUC and ending with the highest. # output: labels, in the requested order
Marked response: II, III, I

###

Biological target: CYP3A4 (Homo sapiens, UniProt P08684)
Sequence (P08684 whole entry): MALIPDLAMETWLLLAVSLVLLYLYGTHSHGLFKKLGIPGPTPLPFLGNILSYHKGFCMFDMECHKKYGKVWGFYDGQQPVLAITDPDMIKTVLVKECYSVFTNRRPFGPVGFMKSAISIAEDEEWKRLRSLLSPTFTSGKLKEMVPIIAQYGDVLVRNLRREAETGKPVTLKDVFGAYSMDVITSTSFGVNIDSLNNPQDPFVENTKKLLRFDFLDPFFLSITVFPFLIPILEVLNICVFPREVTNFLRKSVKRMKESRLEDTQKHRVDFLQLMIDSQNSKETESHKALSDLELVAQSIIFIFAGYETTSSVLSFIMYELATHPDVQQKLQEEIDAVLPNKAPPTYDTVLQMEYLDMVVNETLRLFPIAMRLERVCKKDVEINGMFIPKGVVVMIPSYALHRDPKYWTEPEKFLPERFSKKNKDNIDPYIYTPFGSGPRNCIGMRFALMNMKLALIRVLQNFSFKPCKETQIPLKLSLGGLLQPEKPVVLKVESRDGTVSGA
Assay: Inhibition of CYP3A4 (unknown origin) at 1 uM
Assay type: ADME
MEASURE: inhibition at 1 µM (%)

Example entries begin here.
COc1ccc2c(c1)[C@]1(C[C@H]1c1ccc3c(-c4ccc(N5CCN(CCO)CC5)cc4)n[nH]c3c1)C(=O)N2; 11
CN1CCN(c2ccc(/C=C/c3n[nH]c4cc(/C=C5/C(=O)Nc6ccccc65)ccc34)cn2)CC1; 55
CCN1CCN(c2ccc(-c3n[nH]c4cc([C@@H]5C[C@@]56C(=O)Nc5ccc(OC)cc56)ccc34)cc2)CC1; 6
COc1ccc2c(c1)C(=Cc1ccc3c(-c4ccc(N5CCN(C)CC5)nc4)n[nH]c3c1)C(=O)N2; 19

(1) COc1ccc2c(c1)[C@]1(C[C@H]1c1ccc3c(-c4ccc(N5CCN(C)CC5)cc4)n[nH]c3c1)C(=O)N2
(2) COc1ccc2c(c1)[C@]1(C[C@H]1c1ccc3c(-c4ccc(N5C[C@@H](C)N[C@@H](C)C5)cc4)n[nH]c3c1)C(=O)N2
Exam item: Hi! Which is lower in terms of inhibition at 1 µM, the first one 1 or the second one 2 ? Mark your selection by writing its label.
Marked response: 2

(a) COc1ccc2c(c1)[C@]1(C[C@H]1c1ccc3c(-c4ccc(N5CCN(C)CC5)nc4)n[nH]c3c1)C(=O)N2
(b) COc1ccc2c(c1)[C@]1(C[C@H]1c1ccc3c(/C=C/c4ccc(N5CCN(C)CC5)nc4)n[nH]c3c1)C(=O)N2
Exam item: Hi, I'm comparing two records. Which one has the lower inhibition at 1 µM, a or b ? Respond with the label that goes with your answer.
Marked response: a
(a: 6%, b: 76%)

###

Target: CYP2C19 (Homo sapiens)
Sequence (P33261 whole entry): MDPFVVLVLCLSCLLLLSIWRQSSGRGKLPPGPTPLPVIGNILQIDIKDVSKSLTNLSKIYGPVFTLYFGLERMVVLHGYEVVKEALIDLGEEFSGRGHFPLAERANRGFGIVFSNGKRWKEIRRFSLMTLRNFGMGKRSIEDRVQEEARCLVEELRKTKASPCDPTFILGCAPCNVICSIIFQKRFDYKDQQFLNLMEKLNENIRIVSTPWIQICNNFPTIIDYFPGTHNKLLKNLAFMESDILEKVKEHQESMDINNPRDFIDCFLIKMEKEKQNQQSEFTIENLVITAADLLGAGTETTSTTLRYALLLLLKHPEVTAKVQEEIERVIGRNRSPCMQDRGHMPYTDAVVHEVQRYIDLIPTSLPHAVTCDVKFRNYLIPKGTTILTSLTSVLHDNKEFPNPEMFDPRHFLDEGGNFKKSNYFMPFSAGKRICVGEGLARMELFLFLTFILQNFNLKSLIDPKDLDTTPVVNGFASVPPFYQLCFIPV
Assay: Inhibition of CYP2C19 (unknown origin) at 1 uM
Assay type: ADME
MEASURE: inhibition at 1 µM (%)

Answered cases to consult:
COc1ccc2c(c1)[C@]1(C[C@H]1c1ccc3c(-c4ccc(N5C[C@@H](C)N[C@@H](C)C5)cc4)n[nH]c3c1)C(=O)N2; 54
CCN1CCN(c2ccc(-c3n[nH]c4cc([C@@H]5C[C@@]56C(=O)Nc5ccc(OC)cc56)ccc34)cc2)CC1; 60
COc1ccc2c(c1)[C@]1(C[C@H]1c1ccc3c(/C=C/c4ccc(N5CCN(C)CC5)nc4)n[nH]c3c1)C(=O)N2; 93
COc1ccc2c(c1)[C@]1(C[C@H]1c1ccc3c(-c4ccc(N5CCN(C)CC5)cc4)n[nH]c3c1)C(=O)N2; 33
COc1ccc2c(c1)[C@]1(C[C@H]1c1ccc3c(-c4ccc(N5CCN(C)CC5)nc4)n[nH]c3c1)C(=O)N2; 30
CN1CCN(c2ccc(/C=C/c3n[nH]c4cc(/C=C5/C(=O)Nc6ccccc65)ccc34)cn2)CC1; 83

(1) COc1ccc2c(c1)C(=Cc1ccc3c(-c4ccc(N5CCN(C)CC5)nc4)n[nH]c3c1)C(=O)N2
(2) COc1ccc2c(c1)[C@]1(C[C@H]1c1ccc3c(-c4ccc(N5CCN(CCO)CC5)cc4)n[nH]c3c1)C(=O)N2
Exam item: Lower value of inhibition at 1 µM belongs to which: 1 or 2 ? Answer by stating the label of the chosen item.
Marked response: 2

###

Target: Serine/threonine-protein kinase PLK4 (Homo sapiens)
Sequence (O00444 whole entry): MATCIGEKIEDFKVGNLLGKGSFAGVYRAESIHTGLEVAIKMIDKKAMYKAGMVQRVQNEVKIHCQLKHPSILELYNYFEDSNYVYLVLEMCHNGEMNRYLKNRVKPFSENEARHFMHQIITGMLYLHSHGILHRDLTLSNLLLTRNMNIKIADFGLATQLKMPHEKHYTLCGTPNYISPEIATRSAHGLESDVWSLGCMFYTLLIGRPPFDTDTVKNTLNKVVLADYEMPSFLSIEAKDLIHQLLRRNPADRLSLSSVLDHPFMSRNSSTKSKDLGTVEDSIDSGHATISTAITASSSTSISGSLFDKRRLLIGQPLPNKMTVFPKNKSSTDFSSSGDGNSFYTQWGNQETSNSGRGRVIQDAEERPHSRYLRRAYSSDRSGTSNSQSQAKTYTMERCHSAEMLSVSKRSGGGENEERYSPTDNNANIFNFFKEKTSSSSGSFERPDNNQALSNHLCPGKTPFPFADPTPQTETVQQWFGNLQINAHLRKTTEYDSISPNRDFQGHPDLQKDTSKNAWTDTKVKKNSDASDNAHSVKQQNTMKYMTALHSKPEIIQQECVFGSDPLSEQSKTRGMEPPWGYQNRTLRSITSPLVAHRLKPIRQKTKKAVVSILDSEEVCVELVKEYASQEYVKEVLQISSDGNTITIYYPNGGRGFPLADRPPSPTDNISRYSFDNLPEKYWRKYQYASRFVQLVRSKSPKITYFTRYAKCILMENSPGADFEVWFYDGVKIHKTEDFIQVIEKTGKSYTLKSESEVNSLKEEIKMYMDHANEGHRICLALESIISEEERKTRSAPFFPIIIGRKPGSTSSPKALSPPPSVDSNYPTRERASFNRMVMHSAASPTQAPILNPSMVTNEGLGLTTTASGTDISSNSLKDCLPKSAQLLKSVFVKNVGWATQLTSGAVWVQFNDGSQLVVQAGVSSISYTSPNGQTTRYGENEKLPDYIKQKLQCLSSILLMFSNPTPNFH
pIC50: −log10 of the molar value.
MEASURE: pIC50

COc1ccc2c(c1)C(=Cc1ccc3c(-c4ccc(N5CCN(C)CC5)nc4)n[nH]c3c1)C(=O)N2; 8.62
O=C1Nc2ccccc2C1=Cc1ccc2c(-c3cccnc3)n[nH]c2c1; 7.54
COc1ccc2c(c1)[C@]1(C[C@H]1c1ccc3c(-c4ccnc(N5CCN(C)CC5)c4)n[nH]c3c1)C(=O)N2 (racemic); 8.68
COc1ccc2c(c1)[C@]1(C[C@H]1c1ccc3c(-c4ccc(N5CCN(C)CC5)cc4)n[nH]c3c1)C(=O)N2; 9.03

(a) O=C1Nc2ccccc2C1=Cc1ccc2c(-c3ccncc3)n[nH]c2c1
(b) COc1ccc2c(c1)[C@]1(C[C@H]1c1ccc3c(-c4ccc(C5(F)CCN(C)CC5)cc4)n[nH]c3c1)C(=O)N2
Exam item: Between a and b , whose measured pIC50 reads higher? Give the chosen item's label as your response.
Marked response: b
(b: 8.82, a: 6.66)
